Target: T1, EsCas13d, nuclease-dead (Eubacterium siraeum, UniProt B0MS50, R295A;H300A;R849A;H854A)
T1 sequence: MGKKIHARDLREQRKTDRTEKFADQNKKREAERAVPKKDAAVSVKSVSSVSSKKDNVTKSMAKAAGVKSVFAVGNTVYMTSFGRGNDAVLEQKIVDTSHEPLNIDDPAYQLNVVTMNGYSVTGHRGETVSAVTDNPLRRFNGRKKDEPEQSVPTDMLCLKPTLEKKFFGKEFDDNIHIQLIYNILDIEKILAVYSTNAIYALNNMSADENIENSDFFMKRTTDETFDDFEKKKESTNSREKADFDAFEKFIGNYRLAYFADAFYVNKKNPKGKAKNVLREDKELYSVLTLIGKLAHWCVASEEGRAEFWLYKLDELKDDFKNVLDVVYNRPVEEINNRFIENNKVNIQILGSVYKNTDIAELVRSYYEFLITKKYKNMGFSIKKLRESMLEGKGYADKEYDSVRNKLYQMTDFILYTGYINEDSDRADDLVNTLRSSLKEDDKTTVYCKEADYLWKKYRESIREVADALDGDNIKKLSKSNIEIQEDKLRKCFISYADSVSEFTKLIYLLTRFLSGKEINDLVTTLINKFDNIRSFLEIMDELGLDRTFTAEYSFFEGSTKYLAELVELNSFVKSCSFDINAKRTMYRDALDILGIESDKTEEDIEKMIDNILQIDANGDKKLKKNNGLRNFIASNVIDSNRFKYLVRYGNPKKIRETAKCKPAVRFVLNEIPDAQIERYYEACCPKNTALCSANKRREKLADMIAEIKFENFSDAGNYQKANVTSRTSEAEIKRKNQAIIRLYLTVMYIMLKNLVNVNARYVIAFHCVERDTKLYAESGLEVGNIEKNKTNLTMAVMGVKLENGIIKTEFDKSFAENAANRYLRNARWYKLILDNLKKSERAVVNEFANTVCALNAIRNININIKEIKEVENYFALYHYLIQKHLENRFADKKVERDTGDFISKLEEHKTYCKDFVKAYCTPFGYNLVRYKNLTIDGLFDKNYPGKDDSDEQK
Assay: crRNA (strand 1, pre-loaded); Mg2+; 40 mM Tris-HCl pH 7.5, 150 mM NaCl, 6 mM MgCl2, 1 mM DTT, 0.1% Tween-20, 0.2 mg/ml BSA; 25 C; 10 min per concentration, then washed
Conditions: tags: His6-TwinStrep-SUMO cleaved; N-terminal SNAP kept (SNAP-Surface 488); label: 3' end held by stalled T7 RNA polymerase
pKd: −log10 of the molar value.
In this section we review reported pKd values for a set of binders.
Measured quantity: pKd

[[record]]
binder = "target 2 MT 5'PFS UUU 3'PFS CUG (mixed) RNA 1: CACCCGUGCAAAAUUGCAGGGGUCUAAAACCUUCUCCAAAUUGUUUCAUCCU RNA 2: GGGAAUGGAUCCACAUCUACGAAUUCUUUAGGAUGAAACAAUUUGGAGAAGCUGAGAUCGGAAGAGCACACGU"
quantitative_readout = 8.11

[[record]]
binder = "target 1 G12A,G17C (mixed) RNA 1: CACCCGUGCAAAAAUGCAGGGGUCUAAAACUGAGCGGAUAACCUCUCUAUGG RNA 2: GGGAAUGGAUCCACAUCUACGAAUUCGUACCAUACAGAGAUUAUCCGCUCACCGAGAUCGGAAGAGCACACGU"
quantitative_readout = 7.47

[[record]]
binder = "target 2 MT 5'PFS GCC 3'PFS CAC (mixed) RNA 1: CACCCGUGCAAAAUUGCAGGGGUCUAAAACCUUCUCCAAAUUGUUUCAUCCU RNA 2: GGGAAUGGAUCCACAUCUACGAAUUCGCCAGGAUGAAACAAUUUGGAGAAGCACAGAUCGGAAGAGCACACGU"
quantitative_readout = 7.89


These data points were gathered from paper PMC10786891.
